Parameter: Number of animals in groups with ventricular arrhythmia. Scope: all listed entries.
System: adrenal arrhythmia in mice
Format: in vivo
test.parameters: mice, dose 0.5 mg/kg, introduced internally
Counter-ions that a name gives are not always drawn. Marks after values point to notes of the source that are not given here.

Below are worked cases with known answers.
O=C(O)CCCC(=O)N[C@@H](Cc1c[nH]cn1)C(=O)O; 4*
O=C(O)CCCC(=O)NCCc1c[nH]cn1; 2*
O=C(O)CCCC(=O)N[C@@H](Cc1c[nH]c2ccccc12)C(=O)O [Compound II mono-sodium salt]; 0*

The recorded Number of animals in groups with ventricular arrhythmia for entry O=C(O)CCCC(=O)NCCc1ccccn1 equals 3*

Sample O=C(O)CCCC(=O)N[C@@H](Cc1c[nH]c2ccccc12)C(=O)O [Compound II, N^α-glutaryl-L-tryptophane] ; Number of animals in groups with ventricular arrhythmia observed: 0*

The recorded Number of animals in groups with ventricular arrhythmia for entry O=C(O)CCCC(=O)NCCc1c[nH]c2ccccc12 [Compound XIII mono-sodium salt] equals 3*

Looking up O=C([O-])CCC(=O)NC(Cc1c[nH]c2ccccc12)C(=O)[O-].[K+].[K+] (racemic) [reference compound] , I found its Number of animals in groups with ventricular arrhythmia recorded as 6*

According to the records, this compound O=C(O)CCCC(=O)NCCc1ccncc1 displays Number of animals in groups with ventricular arrhythmia of 2*

Source: patent US20110224213A1
